Test system: 817829-284-R-J1-PDC complex spheroid viability
experimental_protocol: Anticancer human tumor 817829-284-R-J1-PDC patient-derived colon adenocarcinoma cell line growth inhibition [POLQ]
condition_context: curve of first compound; second compound 3.16 µM
Attribute: IC50
property_measured: IC50 (nM)

compound="COc1ccc([C@@H](O)c2cc(-c3ncnc4cc(N5CCOCC5)ccc34)c(F)cc2Cl)nn1 + Cc1cccc(N(C)C(=O)C2C(O)CCN2c2nc(C)cc(C(F)(F)F)c2C#N)c1" qualifier_sign== recorded_value=474
compound="CC1COCCN1c1cc(C2(S(C)(=N)=O)CC2)nc(-c2ccnc3[nH]ccc23)n1 (stereo not given) + Cc1cccc(N(C)C(=O)C2C(O)CCN2c2nc(C)cc(C(F)(F)F)c2C#N)c1" qualifier_sign== recorded_value=394
compound="CC1COCCN1c1cc(-c2ccnn2C)c2ccnc(-c3ccn[nH]3)c2n1 (stereo not given) + Nc1ccc(C#CCN(C(=O)Cc2ncc(C(F)(F)F)cc2C(F)(F)F)c2ccc(F)cc2)nn1" qualifier_sign== recorded_value=53.6
compound="C#Cc1c(F)ccc2cc(O)cc(-c3ncc4c(N5CC6CCC(C5)N6)nc(OCC56CCCN5CC(F)C6)nc4c3F)c12 (stereo not given) + Nc1ccc(C#CCN(C(=O)Cc2ncc(C(F)(F)F)cc2C(F)(F)F)c2ccc(F)cc2)nn1" qualifier_sign=> recorded_value=10000
compound="CCCS(=O)(=O)Nc1ccc(F)c(C(=O)c2c[nH]c3ncc(-c4ccc(Cl)cc4)cc23)c1F + Nc1ccc(C#CCN(C(=O)Cc2ncc(C(F)(F)F)cc2C(F)(F)F)c2ccc(F)cc2)nn1" qualifier_sign== recorded_value=4490

* * *

Tested on: 817829-284-R-J1-PDC complex spheroid viability
experimental_protocol: Anticancer human tumor 817829-284-R-J1-PDC cell line growth inhibition [POLQ];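 also: spheroids exposed to compounds for 7 days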;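 as to viability, T/C: 100% = DMSO vehicle-treated spheroids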
condition_context: second compound 0.316 µM; first compound 0.0316 µM; stronger effect = lower value
Attribute: viability, T/C
property_measured: viability, T/C

compound="CC1COCCN1c1cc(-c2ccnn2C)c2ccnc(-c3ccn[nH]3)c2n1 (stereo not drawn) + Cc1cccc(N(C)C(=O)C2C(O)CCN2c2nc(C)cc(C(F)(F)F)c2C#N)c1" property_measured="viability, T/C" recorded_value=45.2%
compound="CCc1c2c(nc3ccc(O)cc13)-c1cc3c(c(=O)n1C2)COC(=O)[C@]3(O)CC + COC1C(OC(N)=O)C(O)C(Oc2ccc3c(O)c(NC(=O)c4ccc(O)c(CC=C(C)C)c4)c(=O)oc3c2C)OC1(C)C" property_measured="viability, T/C" recorded_value=11.7%
compound="CC1COCCN1c1cc(C2(S(C)(=N)=O)CC2)nc(-c2ccnc3[nH]ccc23)n1 (stereo not drawn) + Nc1ccc(C#CCN(C(=O)Cc2ncc(C(F)(F)F)cc2C(F)(F)F)c2ccc(F)cc2)nn1" property_measured="viability, T/C" recorded_value=99.9%

* * *

Tested on: 817829-284-R-J1-PDC complex spheroid viability
experimental_protocol: Anticancer human tumor 817829-284-R-J1-PDC cell line growth inhibition [POLQ]; active means viability on the fitted dose curve at most 10% of control; inactive means the rest;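 also: spheroids exposed to compounds for 7 days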
condition_context: second compound 0.1 µM; first compound 0.316 µM
Possible outcomes: t (active), f (inactive)

molecule="CC1COCCN1c1cc(C2(O)CC3CCC(C2)O3)c2cnn(-c3ccn[nH]3)c2n1 (stereo not given) + COC1C(OC(N)=O)C(O)C(Oc2ccc3c(O)c(NC(=O)c4ccc(O)c(CC=C(C)C)c4)c(=O)oc3c2C)OC1(C)C" assigned_category=t
molecule="CCc1cc2c(N3CCc4c(cc(Cn5ccnc5)cc4-c4cn(C)nc4C(F)(F)F)C3=O)ccnc2c(OC)n1 + COC1C(OC(N)=O)C(O)C(Oc2ccc3c(O)c(NC(=O)c4ccc(O)c(CC=C(C)C)c4)c(=O)oc3c2C)OC1(C)C" assigned_category=f
molecule="CC(C)n1c(=O)n(C)c2cnc3cc(F)c(-c4ccc(OCCCN5CCCCC5)nc4)cc3c21 + Nc1ccc(C#CCN(C(=O)Cc2ncc(C(F)(F)F)cc2C(F)(F)F)c2ccc(F)cc2)nn1" assigned_category=f
molecule="CC1COCCN1c1cc(C2(S(C)(=N)=O)CC2)nc(-c2ccnc3[nH]ccc23)n1 (stereo not given) + Cc1cccc(N(C)C(=O)C2C(O)CCN2c2nc(C)cc(C(F)(F)F)c2C#N)c1" assigned_category=f
molecule="COc1cc2cc(C(=O)CCC(=O)O)sc2cc1OC + Cc1cccc(N(C)C(=O)C2C(O)CCN2c2nc(C)cc(C(F)(F)F)c2C#N)c1" assigned_category=f

* * *

System: 817829-284-R-J1-PDC complex spheroid viability
experimental_protocol: Anticancer human tumor 817829-284-R-J1-PDC cell line growth inhibition [POLQ];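 also: spheroids exposed to compounds for 7 days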;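 as to viability, T/C: 100% = DMSO vehicle-treated spheroids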
condition_context: second compound 0.316 µM; first compound 0.1 µM; stronger effect = lower value
Attribute: viability, T/C
property_measured: viability, T/C (%)

compound="CC1COCCN1c1cc(C2(S(C)(=N)=O)CC2)nc(-c2ccnc3[nH]ccc23)n1 (centres undefined) + Nc1ccc(C#CCN(C(=O)Cc2ncc(C(F)(F)F)cc2C(F)(F)F)c2ccc(F)cc2)nn1" uom=% recorded_value=86.6
compound="O=c1[nH]cc(F)c(=O)[nH]1 + Cc1cccc(N(C)C(=O)C2C(O)CCN2c2nc(C)cc(C(F)(F)F)c2C#N)c1" uom=% recorded_value=98
compound="O=C(Nc1ccc(O)c(NS(=O)(=O)c2ccc(F)cc2)c1)c1ccc(-c2ccccc2)cc1 + Nc1ccc(C#CCN(C(=O)Cc2ncc(C(F)(F)F)cc2C(F)(F)F)c2ccc(F)cc2)nn1" uom=% recorded_value=105
compound="COc1cc2cc(C(=O)CCC(=O)O)sc2cc1OC + Nc1ccc(C#CCN(C(=O)Cc2ncc(C(F)(F)F)cc2C(F)(F)F)c2ccc(F)cc2)nn1" uom=% recorded_value=101

* * *

Tested on: 817829-284-R-J1-PDC complex spheroid viability
experimental_protocol: Anticancer human tumor 817829-284-R-J1-PDC cell line growth inhibition [POLQ];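 also: spheroids exposed to compounds for 7 days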
condition_context: curve of first compound; second compound 0.1 µM
property_measured: IC50 (nM)

compound="COc1cccc(OCCCN)c1-c1cc(Nc2cnc(C#N)cn2)n[nH]1 + COC1C(OC(N)=O)C(O)C(Oc2ccc3c(O)c(NC(=O)c4ccc(O)c(CC=C(C)C)c4)c(=O)oc3c2C)OC1(C)C" qualifier_sign=< recorded_value=3.16
compound="O=c1[nH]cc(F)c(=O)[nH]1 + COC1C(OC(N)=O)C(O)C(Oc2ccc3c(O)c(NC(=O)c4ccc(O)c(CC=C(C)C)c4)c(=O)oc3c2C)OC1(C)C" qualifier_sign== recorded_value=8960
compound="C=CCn1c(=O)c2cnc(Nc3ccc(N4CCN(C)CC4)cc3)nc2n1-c1cccc(C(C)(C)O)n1 + Cc1cccc(N(C)C(=O)C2C(O)CCN2c2nc(C)cc(C(F)(F)F)c2C#N)c1" qualifier_sign== recorded_value=218
compound="CC1COCCN1c1cc(C2(O)CC3CCC(C2)O3)c2cnn(-c3ccn[nH]3)c2n1 (stereo not given) + COC1C(OC(N)=O)C(O)C(Oc2ccc3c(O)c(NC(=O)c4ccc(O)c(CC=C(C)C)c4)c(=O)oc3c2C)OC1(C)C" qualifier_sign=< recorded_value=31.6
compound="Cn1ncnc1[C@H]1c2n[nH]c(=O)c3cc(F)cc(c23)N[C@@H]1c1ccc(F)cc1 + Cc1cccc(N(C)C(=O)C2C(O)CCN2c2nc(C)cc(C(F)(F)F)c2C#N)c1" qualifier_sign== recorded_value=17.9
compound="C=CCn1c(=O)c2cnc(Nc3ccc(N4CCN(C)CC4)cc3)nc2n1-c1cccc(C(C)(C)O)n1 + Nc1ccc(C#CCN(C(=O)Cc2ncc(C(F)(F)F)cc2C(F)(F)F)c2ccc(F)cc2)nn1" qualifier_sign== recorded_value=219
compound="COc1ccc([C@@H](O)c2cc(-c3ncnc4cc(N5CCOCC5)ccc34)c(F)cc2Cl)nn1 + COC1C(OC(N)=O)C(O)C(Oc2ccc3c(O)c(NC(=O)c4ccc(O)c(CC=C(C)C)c4)c(=O)oc3c2C)OC1(C)C" qualifier_sign== recorded_value=1040
compound="CC1COCCN1c1cc(-c2ccnn2C)c2ccnc(-c3ccn[nH]3)c2n1 (stereo not given) + COC1C(OC(N)=O)C(O)C(Oc2ccc3c(O)c(NC(=O)c4ccc(O)c(CC=C(C)C)c4)c(=O)oc3c2C)OC1(C)C" qualifier_sign=< recorded_value=31.6
compound="CCCS(=O)(=O)Nc1ccc(F)c(C(=O)c2c[nH]c3ncc(-c4ccc(Cl)cc4)cc23)c1F + Cc1cccc(N(C)C(=O)C2C(O)CCN2c2nc(C)cc(C(F)(F)F)c2C#N)c1" qualifier_sign== recorded_value=4450
compound="Nc1ccn(C2OC(CO)C(O)C2(F)F)c(=O)n1 (stereo not given) + Nc1ccc(C#CCN(C(=O)Cc2ncc(C(F)(F)F)cc2C(F)(F)F)c2ccc(F)cc2)nn1" qualifier_sign=< recorded_value=31.6
compound="CCc1cc2c(N3CCc4c(cc(Cn5ccnc5)cc4-c4cn(C)nc4C(F)(F)F)C3=O)cc(C)nc2c(OC)n1 + Cc1cccc(N(C)C(=O)C2C(O)CCN2c2nc(C)cc(C(F)(F)F)c2C#N)c1" qualifier_sign== recorded_value=2490
compound="C#Cc1c(F)ccc2cc(O)cc(-c3ncc4c(N5CC6CCC(C5)N6)nc(OCC56CCCN5CC(F)C6)nc4c3F)c12 (stereo not given) + COC1C(OC(N)=O)C(O)C(Oc2ccc3c(O)c(NC(=O)c4ccc(O)c(CC=C(C)C)c4)c(=O)oc3c2C)OC1(C)C" qualifier_sign=> recorded_value=10000
compound="CCc1cc2c(N3CCc4c(cc(Cn5ccnc5)cc4-c4cn(C)nc4C(F)(F)F)C3=O)ccnc2c(OC)n1 + Nc1ccc(C#CCN(C(=O)Cc2ncc(C(F)(F)F)cc2C(F)(F)F)c2ccc(F)cc2)nn1" qualifier_sign== recorded_value=2410
compound="COc1cc(C2c3cc4c(cc3C(OC3OC5COC(C)OC5C(O)C3O)C3COC(=O)C23)OCO4)cc(OC)c1O (stereo not given) + Cc1cccc(N(C)C(=O)C2C(O)CCN2c2nc(C)cc(C(F)(F)F)c2C#N)c1" qualifier_sign== recorded_value=56.6
compound="CCc1cc2c(N3CCc4c(cc(Cn5ccnc5)cc4-c4cn(C)nc4C(F)(F)F)C3=O)cc(C)nc2c(OC)n1 + Nc1ccc(C#CCN(C(=O)Cc2ncc(C(F)(F)F)cc2C(F)(F)F)c2ccc(F)cc2)nn1" qualifier_sign== recorded_value=2070
compound="CC1COCCN1c1cc(C2(O)CC3CCC(C2)O3)c2cnn(-c3ccn[nH]3)c2n1 (stereo not given) + Nc1ccc(C#CCN(C(=O)Cc2ncc(C(F)(F)F)cc2C(F)(F)F)c2ccc(F)cc2)nn1" qualifier_sign=< recorded_value=31.6
compound="CCc1cc2c(N3CCc4c(cc(Cn5ccnc5)cc4-c4cn(C)nc4C(F)(F)F)C3=O)cc(C)nc2c(OC)n1 + COC1C(OC(N)=O)C(O)C(Oc2ccc3c(O)c(NC(=O)c4ccc(O)c(CC=C(C)C)c4)c(=O)oc3c2C)OC1(C)C" qualifier_sign== recorded_value=1720
compound="CCc1cc2c(N3CCc4c(cc(Cn5ccnc5)cc4-c4cn(C)nc4C(F)(F)F)C3=O)ccnc2c(OC)n1 + Cc1cccc(N(C)C(=O)C2C(O)CCN2c2nc(C)cc(C(F)(F)F)c2C#N)c1" qualifier_sign== recorded_value=4180
compound="CC1COCCN1c1cc(C2(S(C)(=N)=O)CC2)nc(-c2ccnc3[nH]ccc23)n1 (stereo not given) + COC1C(OC(N)=O)C(O)C(Oc2ccc3c(O)c(NC(=O)c4ccc(O)c(CC=C(C)C)c4)c(=O)oc3c2C)OC1(C)C" qualifier_sign== recorded_value=422
compound="C=CCn1c(=O)c2cnc(Nc3ccc(N4CCN(C)CC4)cc3)nc2n1-c1cccc(C(C)(C)O)n1 + COC1C(OC(N)=O)C(O)C(Oc2ccc3c(O)c(NC(=O)c4ccc(O)c(CC=C(C)C)c4)c(=O)oc3c2C)OC1(C)C" qualifier_sign== recorded_value=144
